meta.source: ChEMBL document CHEMBL3097998

System: DNA
Assay Protocol: Binding affinity to calf thymus DNA at 10 uM using sequential DNA addition followed by 15 mins incubation under dark condition by UV-visible spectroscopy
Format: nucleic-acid assay
Protocol Conditions: Bos taurus
Calls of active or inactive are those of the source. The rule behind the calls is not given here.
Measured Metric: Activity

Illustrative cases are given below, each with its answer.
1) CN1/C(=C/C=C/C=C/C2=[N+](C)c3ccc4ccccc4c3C2(C)C)C(C)(C)c2c1ccc1ccccc21; Active
2) CN1/C(=C/C=C(Br)/C=C/C2=[N+](C)c3ccc4ccccc4c3C2(C)C)C(C)(C)c2c1ccc1ccccc21; Active
3) CC1(C)C(/C=C/C(Br)=C/C=C2/N(CCC[N+](C)(C)C)c3ccc4ccccc4c3C2(C)C)=[N+](CCC[N+](C)(C)C)c2ccc3ccccc3c21; Active
4) CC1(C)C(/C=C/C=C/C=C2/N(CCC[N+](C)(C)C)c3ccc4ccccc4c3C2(C)C)=[N+](CCC[N+](C)(C)C)c2ccc3ccccc3c21; Active
5) CC1(C)C(/C=C/C(Cl)=C/C=C2/N(CCC[N+](C)(C)C)c3ccc4ccccc4c3C2(C)C)=[N+](CCC[N+](C)(C)C)c2ccc3ccccc3c21; Active

// below: Activity requested for another compound
Identify the measured Activity of CN1/C(=C/C=C(Cl)/C=C/C2=[N+](C)c3ccc4ccccc4c3C2(C)C)C(C)(C)c2c1ccc1ccccc21 for DNA.
Active
